Hello, the source for this data is paper PMC5011932, in case you need it.

# Measurement Notes: in vivo
# Run Parameters: rhesus monkey, Plasma concentration, mean
Readout Label: concentration at 3 h (nM)
Give a bare numeral; the unit nM is implied.

// query concentration at 3 h value for entry `C[C@H]1[C@H](OC(=O)CCC(=O)O)O[C@@H]2O[C@@]3(C)CC[C@H]4[C@H](C)CC[C@@H]1[C@@]24OO3`
0

----------
# Measurement Notes: Plasma pharmacokinetics by HPLC-ECD after IV dose in rhesus monkeys
# Run Parameters: rhesus monkey, plasma, intravenous, 8 mg kg^-1, Plasma concentration, mean, 0.08 h; infected rhesus; after IV AL 11.8 or AS 8.0 mg/kg
Readout Label: concentration at 0.08 h (µM)
Give a bare numeral; the unit µM is implied.

// query concentration at 0.08 h value for entry C[C@H]1[C@@H](O)O[C@@H]2O[C@@]3(C)CC[C@H]4[C@H](C)CC[C@@H]1[C@@]24OO3 [DHA, dihydroartemisinin]
6.74

----------
# Measurement Notes: in vivo
# Run Parameters: rhesus monkey, iv, 8 mg/kg, AUC0–∞, parent compound (P)
Readout Label: AUC(0-inf) (µM·h)
Give a bare numeral; the unit µM·h is implied.

// query AUC(0-inf) value for entry C[C@H]1[C@H](OC(=O)CCC(=O)O)O[C@@H]2O[C@@]3(C)CC[C@H]4[C@H](C)CC[C@@H]1[C@@]24OO3 [IV AS, Artesunic acid]
4.8

----------
# Measurement Notes: in vivo
# Run Parameters: rhesus monkey, iv, 8 mg/kg, Cmax, parent compound (P)
Readout Label: Cmax (µM)
Give a bare numeral; the unit µM is implied.

// query Cmax value for entry `C[C@H]1[C@H](OC(=O)CCC(=O)O)O[C@@H]2O[C@@]3(C)CC[C@H]4[C@H](C)CC[C@@H]1[C@@]24OO3`
28.2

----------
# Measurement Notes: Plasma pharmacokinetics by HPLC-ECD after IV dose in rhesus monkeys
# Run Parameters: rhesus monkey, plasma, intravenous, 8 mg kg^-1, Plasma concentration, mean, 0.08 h; healthy rhesus; after IV AL 11.8 or AS 8.0 mg/kg
Readout Label: concentration at 0.08 h (µM)
Give a bare numeral; the unit µM is implied.

// query concentration at 0.08 h value for entry C[C@H]1[C@@H](O)O[C@@H]2O[C@@]3(C)CC[C@H]4[C@H](C)CC[C@@H]1[C@@]24OO3 [DHA, dihydroartemisinin]
7.89

----------
# Measurement Notes: Plasma pharmacokinetics by HPLC-ECD after IV dose in rhesus monkeys
# Run Parameters: rhesus monkey, plasma, iv, 8 mg/kg, AUC 0-20, mean; healthy rhesus
Readout Label: AUC(0-t) (µM·h)
Give a bare numeral; the unit µM·h is implied.

// query AUC(0-t) value for entry C[C@H]1[C@@H](O)O[C@@H]2O[C@@]3(C)CC[C@H]4[C@H](C)CC[C@@H]1[C@@]24OO3 [DHA, dihydroartemisinin]
2.17

----------
# Measurement Notes: Plasma pharmacokinetics by HPLC-ECD after IV dose in rhesus monkeys
# Run Parameters: rhesus monkey, plasma, iv, 8 mg/kg, Cmax, mean; healthy rhesus; IV AL/Lys 11.8 or AS/Na 8 mg/kg; analyte = label
Readout Label: Cmax (µM)
Give a bare numeral; the unit µM is implied.

// query Cmax value for entry C[C@H]1[C@@H](O)O[C@@H]2O[C@@]3(C)CC[C@H]4[C@H](C)CC[C@@H]1[C@@]24OO3 [DHA, dihydroartemisinin]
8.1
